Just for reference, patent US8232426B2 is where these values come from.

# Target Entity: human dopamine D3 receptors (Homo sapiens, UniProt P35462)
# Construct: expressed in transfected cells; host or cells: HEK-293
# Sequence (P35462 whole entry): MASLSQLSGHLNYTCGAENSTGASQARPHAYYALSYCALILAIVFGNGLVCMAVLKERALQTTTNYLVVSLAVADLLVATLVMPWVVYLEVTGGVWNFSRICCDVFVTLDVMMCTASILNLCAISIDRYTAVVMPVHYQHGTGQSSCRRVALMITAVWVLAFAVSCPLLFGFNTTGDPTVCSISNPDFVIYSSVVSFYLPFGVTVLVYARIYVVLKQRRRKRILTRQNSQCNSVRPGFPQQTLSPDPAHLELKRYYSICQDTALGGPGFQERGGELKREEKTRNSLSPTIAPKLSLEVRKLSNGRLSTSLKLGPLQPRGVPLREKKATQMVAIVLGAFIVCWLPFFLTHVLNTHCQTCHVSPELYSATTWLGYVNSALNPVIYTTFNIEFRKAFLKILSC
# Assay Info: Dopamine D3 receptor binding ([125I]-iodosulpride displacement)
# Experimental Setup: membranes of HEK-293 cells stably expressing human D3 receptor, 0.1 nM [125I]-iodosulpride, 25° C., 60 minutes; read-out: Ki(D3)*
pKi: −log10 of the molar value.

{"columns": ["Molecule", "pKi"],
 "data": [
  ["CCCN1CCCC1Cc1ccc(NS(=O)(=O)c2ccc(C(C)C)cc2)cc1 (centres unmarked)", 9.24],
  ["CCCN(CCC)CCc1ccc(NS(=O)(=O)c2ccc(C(C)C)cc2)cc1", 9.70],
  ["C=CCNCCc1ccc(N(CCC)S(=O)(=O)c2ccc(OC(F)(F)F)cc2)cc1.Cl", 7.43],
  ["CCCN(CCC)CCc1ccc(CS(=O)(=O)c2ccc(C(C)C)cc2)cc1", 9.30],
  ["CCCNCCc1ccc(NS(=O)(=O)c2ccc(C(C)C)cc2)cn1", 7.38],
  ["CCCNCCc1ccc(CS(=O)(=O)c2ccc(C(C)C)cc2)cc1.Cl", 8.32],
  ["C=CCNCCc1ccc(N(C)S(=O)(=O)c2ccc(C(C)C)cc2)cc1.Cl", 7.57],
  ["CCCN(CCC)CCc1ccc(N(C)S(=O)(=O)c2ccc(C(C)C)cc2)cc1", 8.70]
]}

###

# Target Entity: human dopamine D3 receptors (Homo sapiens)
# Construct: expressed in transfected cells; host or cells: HEK-293
# Assay Info: Dopamine D3 receptor binding ([125I]-iodosulpride displacement)
pKi: −log10 of the molar value.
Endpoint Name: pKi

{"columns": ["Compound", "Value Reported"],
 "data": [
  ["CCCN[C@@H](C)Cc1ccc(NS(=O)(=O)c2ccc(OC(F)(F)F)cc2)cc1", 7.37],
  ["C=CCNCCc1cccc(NS(=O)(=O)c2ccc(C(C)C)cc2)c1 [Example 21, reference compound]", 7.66],
  ["CCCN[C@H](C)Cc1ccc(NS(=O)(=O)c2ccc(OC(F)(F)F)cc2)cc1", 7.68],
  ["C=CCN(CC=C)CCc1ccc(CS(=O)(=O)c2ccc(C(C)C)cc2)cc1", 8.08],
  ["CCCN(CCC)CCc1ccc(CS(=O)(=O)c2ccc(OC(F)(F)F)cc2)cc1", 8.41]
]}

###

Form field: Ki(D2)*/Ki(D3)* (one value per entry).
# Target Entity: human dopamine D2L receptors (long isoform) (Homo sapiens, UniProt P14416)
# Construct: expressed in transfected cells; host or cells: HEK-293
# Sequence (P14416 whole entry, canonical isoform): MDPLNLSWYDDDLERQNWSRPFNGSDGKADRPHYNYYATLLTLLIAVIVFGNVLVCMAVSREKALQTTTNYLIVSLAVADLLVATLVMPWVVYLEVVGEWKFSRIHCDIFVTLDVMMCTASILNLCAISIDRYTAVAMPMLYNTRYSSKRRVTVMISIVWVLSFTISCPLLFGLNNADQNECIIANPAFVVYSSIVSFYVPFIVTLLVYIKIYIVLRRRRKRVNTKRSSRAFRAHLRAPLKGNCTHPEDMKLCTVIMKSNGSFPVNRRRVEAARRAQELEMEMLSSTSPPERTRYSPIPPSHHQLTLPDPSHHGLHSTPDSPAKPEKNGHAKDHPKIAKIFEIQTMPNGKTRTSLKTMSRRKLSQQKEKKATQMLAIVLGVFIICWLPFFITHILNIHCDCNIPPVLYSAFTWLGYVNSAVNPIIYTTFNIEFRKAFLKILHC
# Assay Info: Dopamine D2L receptor binding ([125I] iodospiperone displacement)
# Experimental Setup: selectivity ratio of receptor binding constants, D2L versus D3, HEK-293 membranes
Endpoint Name: Ki(D2)*/Ki(D3)*

{"columns": ["Compound", "Endpoint Name", "Value Reported"],
 "data": [
  ["C=CCNCCc1ccc(N(C)S(=O)(=O)c2ccc(C(C)C)cc2)cc1.Cl", "Ki(D2)*/Ki(D3)*", 40],
  ["CC(C)c1ccc(S(=O)(=O)Nc2ccc(CCNCC3CC3)cc2)cc1", "Ki(D2)*/Ki(D3)*", 23],
  ["C=CCN(CC=C)CCc1ccc(NS(=O)(=O)c2ccc(C(C)C)cc2)cc1", "Ki(D2)*/Ki(D3)*", 42],
  ["CCCN(CCC)CCc1ccc(CS(=O)(=O)c2ccc(C(C)C)cc2)cc1", "Ki(D2)*/Ki(D3)*", 175],
  ["CCCNCCc1ccc(NS(=O)(=O)c2ccc(C(C)C)cc2)cn1", "Ki(D2)*/Ki(D3)*", 53],
  ["CCCNC(C)Cc1ccc(NS(=O)(=O)c2ccc(C(C)C)cc2)cc1.Cl (stereo not shown)", "Ki(D2)*/Ki(D3)*", 33],
  ["CCCN1CCCC1Cc1ccc(NS(=O)(=O)c2ccc(C(C)C)cc2)cc1 (stereo not shown)", "Ki(D2)*/Ki(D3)*", 16],
  ["C=CCN(CC=C)CCc1ccc(NS(=O)(=O)c2ccc(OC(F)(F)F)cc2)cc1", "Ki(D2)*/Ki(D3)*", 65],
  ["C=CCNCCc1ccc(N(C)S(=O)(=O)c2ccc(OC(F)(F)F)cc2)cc1", "Ki(D2)*/Ki(D3)*", 75],
  ["C=CCNCCc1ccc(NS(=O)(=O)c2ccc(C(C)C)cc2)cc1.Cl", "Ki(D2)*/Ki(D3)*", 74],
  ["CCCNCCc1ccc(CS(=O)(=O)c2ccc(C(C)C)cc2)cc1.Cl", "Ki(D2)*/Ki(D3)*", 130],
  ["CCCNCCc1ccc(NS(=O)(=O)c2ccc(C(C)C)cc2)cc1.Cl", "Ki(D2)*/Ki(D3)*", 22],
  ["C=CCNCCc1cccc(NS(=O)(=O)c2ccc(C(C)C)cc2)c1 [Example 21, reference compound]", "Ki(D2)*/Ki(D3)*", 62]
]}
